Reported EC50 hGLP1R 0.5% hP (CreLuc) values are given for each entry in this list.
Target: GLP-1 receptor (human (printed as hGLP1R), UniProt P43220 24-463)
Experiment: cell-based or functional assay
Starred links: 1 amine or outer side, 2 acyl side, 3 side chain; linkers in the order of their positions; H or OH if unused. Non-standard residues stand in square brackets, D forms with d. Groups on a side chain read outwards from the residue. No end group written: not given here. *: point of attachment. C20 diacid = O=C(O)CCCCCCCCCCCCCCCCCCC(=O)*; C18 diacid = O=C(O)CCCCCCCCCCCCCCCCC(=O)*; γGlu = O=C(O)[C@H](CCC(=O)[*:2])N[*:1]; εLys = N[C@@H](CCCCN[*:1])C(=O)[*:2]; glu = not defined here; AEEA = NCCOCCOCC(=O)O; Aib = CC(C)(N)C(=O)O
All answers are understood in nM, so give the number only.

Below are worked cases with known answers.
binder	unit of measure	EC50 hGLP1R 0.5% hP (CreLuc)
Y[Aib]EGTFTSDYSI[Aib]LEKQAQ[Aib]AFVQWLIK([AEEA-AEEA-Glu-Glu-Glu-Glu-C20 diacid])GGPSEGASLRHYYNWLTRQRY-NH2 (also: TFA salt) [Compound 239]	nM	0.11
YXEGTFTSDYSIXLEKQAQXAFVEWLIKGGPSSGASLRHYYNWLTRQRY (Aib at 2, 13, 20; K28 side chain carries C20DA-gGlu-gGlu-gGlu-gGlu-gGlu; C-terminal amide) [Compound 238]	nM	0.1
Y[Aib]EGTFTSDYSI[Aib]LEK(Ac)QAQ[Aib]AFVEWLIK([εLys-glu-γGlu-γGlu-γGlu-γGlu-γGlu-C20 diacid])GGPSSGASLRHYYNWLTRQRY-NH2 (reading uncertain; also: TFA salt) [Compound 192]	nM	0.13
Y[Aib]EGTFTSDYSI[Aib]LEKQAQ[Aib]AFVQWLIK([AEEA-AEEA-γGlu-γGlu-γGlu-γGlu-C18 diacid])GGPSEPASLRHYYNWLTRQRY-NH2 (also: TFA salt) [Compound 173]	nM	0.11
YXEGTFTSDYSIXLEKQAQXAFVEWLIKGGPSSGASLRHYYNXLTRQRY (Aib at 2, 13, 20, 43; K28 side chain carries C20DA-gGlu-gGlu-gGlu-gGlu-gGlu-gGlu-eLys; C-terminal amide) [Compound 218]	nM	0.16

Query :: Consider the binder shown here: Y[Aib]EGTFTSDYSI[Aib]LEKQAQ[Aib]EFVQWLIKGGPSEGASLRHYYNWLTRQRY-NH2 (not fully specified (residue 28); also: TFA salt) [Compound 207] What is its recorded EC50 hGLP1R 0.5% hP (CreLuc)?
Result :: 0.36

Query :: So what does the record say about EC50 hGLP1R 0.5% hP (CreLuc) for YXEGTFTSDYSIXLEKQAQXAFVEWLIKGGPSEYVSLRHYYNWLTRQRY (Aib at 2, 13, 20; K28 side chain carries C20DA-gGlu-gGlu-gGlu-gGlu-gGlu-gGlu-eLys; C-terminal amide) [Compound 217] ?
Result :: 1.34

Query :: Item under review: Y[Aib]EGTFTSDYSI[Aib]LEKQAQ[Aib]AFVEWLIK([AEEA-AEEA-γGlu-γGlu-γGlu-γGlu-C20 diacid])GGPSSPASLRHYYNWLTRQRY-NH2 (also: TFA salt) [Compound 175] . Reported EC50 hGLP1R 0.5% hP (CreLuc)?
Result :: 0.1
